# studyTarget: T1, HsGATAD2A coiled-coil domain, uncleaved fusion peptide (human, UniProt Q86YP4 137-178)
# T1 construct: GATAD2A (p66α), human, coiled-coil domain; the purification of this construct is not described here; also called GATAD2A (p66α)
# T1 sequence (Q86YP4 137-178): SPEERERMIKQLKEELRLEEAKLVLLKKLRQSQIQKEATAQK
# experimentalDetails: ITC; fusion peptides left uncleaved; 50 mM Hepes pH 7.4, 150 mM NaCl, 298 K; MicroCal Auto-iTC200, 20–24 injections; HsMBD2 (1.8 mM), EmGATAD2A/B (2.74 mM), DmGATAD2A/B (2.5 mM) injected into HsGATAD2A (100 μM), EmMBD2/3 (270 μM), DmMBD2/3 (250 μM); one-site binding model
# measurementConditions: both partners purified
No end group written: not given here.
recordedMetric: pKd
To interpret pKd, take it as minus log10 of a concentration measured in moles per litre.

Please supply the value of reported pKd for the item KAFIVTDEDIRKQEERVQQVRKKLEEALMADILS (domain or fragment, human, also: uncleaved fusion tag, MBD2, human, coiled-coil domain; the purification of this construct is not described here) [HsMBD2 coiled-coil domain, uncleaved fusion peptide]
7.32
